Assay: physchem
Settings: water
Reported solubility kinetic at 24 h, 200 µM by item:
outcome_measure: solubility kinetic at 24 h, 200 µM (µM)

INSERT INTO measurements (smiles_text, outcome_measure, limit_sign, val) VALUES
  ('O=c1c2nc([N+](=O)[O-])cn2ccn1Cc1cccc(C(F)(F)F)c1', 'solubility kinetic at 24 h, 200 µM', '<', 5),
  ('O=c1[nH]c(-c2ccccc2)cn2cc([N+](=O)[O-])nc12', 'solubility kinetic at 24 h, 200 µM', '=', 27),
  ('O=c1c2nc([N+](=O)[O-])cn2ccn1Cc1ccccn1', 'solubility kinetic at 24 h, 200 µM', '=', 176),
  ('CC(=O)OCCn1c(-c2ccccc2)cn2cc([N+](=O)[O-])nc2c1=O', 'solubility kinetic at 24 h, 200 µM', '>', 100);

###

Test: Metabolic stability in human plasma assessed as parent compound remaining at 3 uM after 2 hrs by LC-MS/MS analysis
Reported Stability by item:
outcome_measure: Stability (%)

INSERT INTO assay_data (molecule, outcome_measure, units, limit_sign, val) VALUES
  ('O=c1c2nc([N+](=O)[O-])cn2ccn1Cc1ccc(F)cc1', 'Stability', '%', '=', 98),
  ('Cc1cn2cc([N+](=O)[O-])nc2c(OCc2ccc(OC(F)(F)F)cc2)n1', 'Stability', '%', '=', 94),
  ('O=c1c2nc([N+](=O)[O-])cn2ccn1Cc1cccc(OC(F)(F)F)c1', 'Stability', '%', '>', 99),
  ('Cc1ccc(Cn2ccn3cc([N+](=O)[O-])nc3c2=O)cc1', 'Stability', '%', '>', 99),
  ('Cc1nc(OCc2ccc(OC(F)(F)F)cc2)c2nc([N+](=O)[O-])cn2c1C', 'Stability', '%', '>', 99),
  ('O=c1c2nc([N+](=O)[O-])cn2ccn1Cc1ccc(OC(F)(F)F)cc1', 'Stability', '%', '>', 99),
  ('CC1CC(OC(=O)C(O)c2ccccc2)CC(C)(C)N1C (stereo not drawn)', 'Stability', '%', '=', 21),
  ('Cc1cn2cc([N+](=O)[O-])nc2c(=O)n1Cc1ccc(OC(F)(F)F)cc1', 'Stability', '%', '=', 92);

###

Experiment: Protein binding in human plasma at 5 uM after 30 mins by LC-MS/MS analysis based ultrafiltration method
Details: 0.5 h
outcome_measure: PPB

INSERT INTO results (smiles_text, val) VALUES
  ('Cc1cn2cc([N+](=O)[O-])nc2c(=O)n1Cc1ccc(OC(F)(F)F)cc1', '98%'),
  ('O=c1c2nc([N+](=O)[O-])cn2ccn1Cc1ccc(OC(F)(F)F)cc1', '98%'),
  ('Cc1cn2cc([N+](=O)[O-])nc2c(OCc2ccc(OC(F)(F)F)cc2)n1', '> 99%'),
  ('O=c1c2nc([N+](=O)[O-])cn2ccn1Cc1ccc(F)cc1', '82%');

###

Reported solubility kinetic at 24 h, 200 µM by item:
Assay: physchem
Conditions: PBS, pH 7.4
outcome_measure: solubility kinetic at 24 h, 200 µM

INSERT INTO results (smiles_text, val) VALUES
  ('Cc1ccc(Cn2c(C)c(C)n3cc([N+](=O)[O-])nc3c2=O)cc1', '< 10 µM'),
  ('CC(=O)OCCn1c(C)cn2cc([N+](=O)[O-])nc2c1=O', '100 to 200 µM'),
  ('CC(=O)OCCn1c(-c2ccccc2)cn2cc([N+](=O)[O-])nc2c1=O', '> 100 µM'),
  ('O=c1[nH]c(-c2ccccc2)cn2cc([N+](=O)[O-])nc12', '17 µM'),
  ('O=c1c2nc([N+](=O)[O-])cn2ccn1Cc1cccc(C(F)(F)F)c1', '< 5 µM'),
  ('O=c1c2nc([N+](=O)[O-])cn2ccn1Cc1ccccn1', '184 µM');

###

Reported CC50 by item:
System: HepG2
Assay: Cytotoxicity against human HepG2 cells after 24 hrs by resazurin dye-based fluorescence assay
Type: cell-based
Conditions: hepg2, 24 h
outcome_measure: CC50

INSERT INTO measurements (compound, tested_system, outcome_measure, val) VALUES
  ('CC(c1ccc(F)cc1)n1ccn2cc([N+](=O)[O-])nc2c1=O (stereo unspecified)', 'HepG2', 'CC50', '> 100 µM'),
  ('O=c1c2nc([N+](=O)[O-])cn2ccn1Cc1ccc(F)cc1F', 'HepG2', 'CC50', '> 100 µM'),
  ('O=[N+]([O-])c1cn2ccnc(OCCc3ccc(OC(F)(F)F)cc3)c2n1', 'HepG2', 'CC50', '> 100 µM'),
  ('O=c1c2nc([N+](=O)[O-])cn2ccn1Cc1ccccc1OC(F)(F)F', 'HepG2', 'CC50', '> 100 µM'),
  ('NC(=O)Cn1ccn2cc([N+](=O)[O-])nc2c1=O', 'HepG2', 'CC50', '> 100 µM'),
  ('O=c1c2nc([N+](=O)[O-])cn2ccn1CCN1CCOCC1', 'HepG2', 'CC50', '> 100 µM'),
  ('Cc1cccc(Cn2ccn3cc([N+](=O)[O-])nc3c2=O)c1', 'HepG2', 'CC50', '> 100 µM'),
  ('O=c1[nH]ccn2cc([N+](=O)[O-])nc12', 'HepG2', 'CC50', '> 100 µM'),
  ('O=C(Cn1ccn2cc([N+](=O)[O-])nc2c1=O)N1CCOCC1', 'HepG2', 'CC50', '> 100 µM'),
  ('O=c1c2nc([N+](=O)[O-])cn2ccn1Cc1ccccn1', 'HepG2', 'CC50', '> 100 µM'),
  ('O=c1c2nc([N+](=O)[O-])cn2cc(-c2ccccc2)n1CCO', 'HepG2', 'CC50', '> 75 µM');

###

Experiment: Apparent permeability across basolateral to apical side in human Caco2 cells assessed as mean drug recovery at 2 uM after 2 hrs by lucifer yellow dye-based LC-MS/MS analysis
Conditions: Caco-2
outcome_measure: recovery at 2 h, 2 µM (%)

INSERT INTO results (molecule, val) VALUES
  ('O=[N+]([O-])c1cn2c(n1)OC[C@@H](OCc1ccc(OC(F)(F)F)cc1)C2 [PRETOMANID]', 101),
  ('O=c1c2nc([N+](=O)[O-])cn2ccn1Cc1ccc(OC(F)(F)F)cc1', 97),
  ('C[C@H]1O[C@@H](O[C@H]2[C@@H](O)C[C@H](O[C@H]3[C@@H](O)C[C@H](O[C@H]4CC[C@@]5(C)[C@H](CC[C@@H]6[C@@H]5C[C@@H](O)[C@]5(C)[C@@H](C7=CC(=O)OC7)CC[C@]65O)C4)O[C@@H]3C)O[C@@H]2C)C[C@H](O)[C@@H]1O [DIGOXIN]', 88),
  ('O=c1c2nc([N+](=O)[O-])cn2ccn1Cc1cccc(OC(F)(F)F)c1', 99);

###

Assay: Apparent permeability across apical to basolateral side in human Caco2 cells assessed as mean drug recovery at 2 uM after 2 hrs by lucifer yellow dye-based LC-MS/MS analysis
Details: caco-2, 2 h
outcome_measure: Drug recovery (%)

INSERT INTO measurements (compound, limit_sign, val) VALUES
  ('O=c1c2nc([N+](=O)[O-])cn2ccn1Cc1cccc(OC(F)(F)F)c1', '=', 88),
  ('O=c1c2nc([N+](=O)[O-])cn2ccn1Cc1ccc(OC(F)(F)F)cc1', '=', 83),
  ('O=[N+]([O-])c1cn2c(n1)OC[C@@H](OCc1ccc(OC(F)(F)F)cc1)C2', '=', 81),
  ('CC(C)NCC(O)COc1cccc2ccccc12 (stereo not given)', '=', 70),
  ('C[C@H]1O[C@@H](O[C@H]2[C@@H](O)C[C@H](O[C@H]3[C@@H](O)C[C@H](O[C@H]4CC[C@@]5(C)[C@H](CC[C@@H]6[C@@H]5C[C@@H](O)[C@]5(C)[C@@H](C7=CC(=O)OC7)CC[C@]65O)C4)O[C@@H]3C)O[C@@H]2C)C[C@H](O)[C@@H]1O', '<', 72);

###

Reported Stability by item:
Test: Metabolic stability in human liver microsomes assessed as parent compound remaining at 3 uM after 2 hrs by LC-MS/MS analysis
outcome_measure: Stability

INSERT INTO results (smiles_text, val) VALUES
  ('Cc1cn2cc([N+](=O)[O-])nc2c(=O)n1Cc1ccc(OC(F)(F)F)cc1', '> 99%'),
  ('O=c1c2nc([N+](=O)[O-])cn2ccn1Cc1ccccc1OC(F)(F)F', '> 99%'),
  ('O=c1c2nc([N+](=O)[O-])cn2ccn1Cc1cccc(OC(F)(F)F)c1', '> 99%');
